- protocol_description: Phase 1 study: pharmacokinetics in patients
- Format: in vivo, human
- study_conditions: human, in vivo, oral, Mean half-life, BID dosing, day 15; SD 0.751
measurement_kind: half-life (h)
Report as a plain number; the unit h is understood.

Asked: # get_value(readout='half-life', item= Cc1ccc(NC(=O)c2ccc(CN3CC[C@H](N(C)C)C3)c(C(F)(F)F)c2)cc1Nc1nccc(-c2cncnc2)n1 )
Given back: 2.28
